molecular target: T1, human Claudin18.2 protein (P50251802, GenScript) (human, UniProt P56856-2 1-261, limits assumed); assay: BLI (Fortebio Octet Red96), AHC sensor, antibody and human Claudin18.2 protein (GenScript)
T1 construct: also called human CLDN18.2
Simple rule here: Kd less than 2 nM is TRUE, otherwise FALSE.

Positive control antibody Zmab (zolbetuximab) (antibody, human IgG1, kappa, V domains shown) VH: QVQLQQPGAELVRPGASVKLSCKASGYTFTSYWINWVKQRPGQGLEWIGNIYPSDSYTNYNQKFKDKATLTVDKSSSTAYMQLSSPTSEDSAVYYCTRSWRGNSFDYWGQGTTLTVSS VL: DIVMTQSPSSLTVTAGEKVTMSCKSSQSLLNSGNQKNYLTWYQQKPGQPPKLLIYWASTRESGVPDRFTGSGSGTDFTLTISSVQAEDLAVYYCQNDYSYPFTFGSGTKLEIKR    FALSE
51H10 (antibody, human IgG1, kappa, V domains shown) VH: EVQLQQSVPELVKPGASVRMSCKASGYTFTKYIIQWVKQKPGQGLEWIAYINPYNDDTKYNEKFKGKATLTSDKSASTAYMELSSLTSEDSAVYYCATTYYGNSFPNWGQGTLVTVSA VL: DIVMTQSPSSLTVTAGERVTMTCKSSQSLLNSGNQKNYLTWYQQKPGQPPKLLIYWASTRESGVPDRFTGSGSGTDFTLTISSLQSEDLAVYFCQNDYSFPFTFGSGTKLEIKR    TRUE
46F6 (antibody, human IgG1, kappa, V domains shown) VH: QVQLKESGPGLVAPSQSLSITCTVSGFSLTDYGVSWIRQPPGKGLEWLGVMWGGGNTYYNSALKSRLSISKDNSKSQVFLKMNSLQSDDTAMYYCAKQRYGGNAMDYWGQGTSVTVSS VL: DIQMTQSPSSLTVTAGEKVTMSCKSSQSLLNSGNQRNYLTWYQQIPGQPPKLLIYWASTRESGVPNRFTGSGSGAEFTLTISSVQTEDLAVYYCQNSYFYPFTFGAGTKLELKR    TRUE
38F8 (antibody, human IgG1, kappa, V domains shown) VH: EVQLVESGGGLVKPGGSLKLSCAASGFSFSDYGMHWVRQAPEKGLEWIAYINSGSRTLYYADTVKGRFTISRDNAKNTLFLQMTSLRSEETAMYYCTRNAYYGNAMDYWGQGTSVTVSS VL: DIQMTQSPSSLTVTAGEKVTMSCKSSQSLLNSGNQRNYLTWYQQIPGQPPKLLIYWSSTRGSGVPDRFTGSGSGTDFTLTISSVQAEDLAVYFCQNVYYYPFTFGSGTRLEVKR    TRUE
25C7 (antibody, human IgG1, kappa, V domains shown) VH: EVMLVESGGGLVQPGGSRKLSCAASGFTFSDYGMAWVRQAPGKGPEWVAFINNLAYSIYYVDTVTGRFTISRENAKDTLYLEMSSLRSEDTALYYCARFTTGNVMDYWGQGTSVTVSS VL: DIVMTQSPSSLTVTAGEKVTMTCKSSQSLLNGGNQKNYLTWYQQKPGQPPKLLIYWSSTRESGVPDRFTGSGSGTDFTLTITSVQAEDLAVYYCQNSYSYPLTFGSGTKLELKR    TRUE

Dear colleague, could you confirm whether Kd of 69H9 (antibody, human IgG1, kappa, V domains shown) VH: EVQLQQSGPELMKPGASVKISCKATGYSFSSYNIHWVKQSHGKSLEWIGYIAPFNGDSRYNQKFKGKATVTVDKSSSTAYMHLSSLTSEDSAVYYCGRLNRGNSLDYWGQGTSLTVSS VL: DIVMTQSPSSLTVTAGEKVTMSCKSSQSLFNSGNQRNYLTWYQQKPGQPPKLLIYWASTRESGVPDRFTGSGSGTDFTLTISSVQAEDLAFYYCQNNYIYPLTFGAGTKLELKR falls below 2 nM? Thanks. TRUE

Please give the result for 3G3 (antibody, human IgG1, kappa, V domains shown) VH: QVQLQQSGPQLVRPGASVKISCKASGYSFTTYWMHWVKQRPGQGLEWIGLIDPSDSETRLNQKFKDKATLTVDKSSSTAYMRLSSPTSEDSAVYYCASNRWLLGWGQGTLVTVSS VL: DIQMIQSPSSLTVTAGEKVTMSCKSSQSLLNSGNQKNYLTWYQQKPGQPPKLLIYWASTRESGVPDRFTGSGSGTDFTLTISSVQTEDLAVYYCQNDYSYPLTFGAGTKLEIKR too. FALSE

Same question, 59C1 (antibody, human IgG1, kappa, V domains shown) VH: QVQLKESGPDLVKPSQSLSLTCTVTGYSITSGYGWNWIRQFPGNKLEWMGYIHFSGSTNYNPSLKSRISITRDTSKNQFFLQLNSVTTEDTATYYCARSGKGNAMDYWGQGTSVTVSS VL: DIQMTQSPSSLTVTAGEKVTMSCKSSQSLLNSGNQKNYLTWYQQKPGQPPKLLIYWASTRESGVPDRFTGSGSGTDFTLTVINMQAEDLALYYCQNDYYFPFTFGSGTKLEIKR this time TRUE

Would you mind doing 14A5 (antibody, human IgG1, kappa, V domains shown) VH: QVQLKESGPGLVAPSQSLSITCSVSGFSLNSYGVGWVRQPPGKGLEWLGVIWGDGSTNYHSVLISRLSIRKDNSKSQVFLKLNSLQTDDTATYYCAMITRGNAMDYWGQGTSVTVSS VL: DIVMTQSPSSLTVTAGEKITMSCKSSQSLLNSGNQRNYLTWYQQKPGQTPKLLIYWASTRKSGVPDRFTGSGSGTDFTLTISSVQAEDLAVYSCQNNYLFPLTFGAGTKLELKR as well? TRUE
